These data points were gathered from ChEMBL document CHEMBL3112438.

Molecular target: Bifunctional epoxide hydrolase 2 (Rattus norvegicus, UniProt P80299)
Sequence (P80299 whole entry): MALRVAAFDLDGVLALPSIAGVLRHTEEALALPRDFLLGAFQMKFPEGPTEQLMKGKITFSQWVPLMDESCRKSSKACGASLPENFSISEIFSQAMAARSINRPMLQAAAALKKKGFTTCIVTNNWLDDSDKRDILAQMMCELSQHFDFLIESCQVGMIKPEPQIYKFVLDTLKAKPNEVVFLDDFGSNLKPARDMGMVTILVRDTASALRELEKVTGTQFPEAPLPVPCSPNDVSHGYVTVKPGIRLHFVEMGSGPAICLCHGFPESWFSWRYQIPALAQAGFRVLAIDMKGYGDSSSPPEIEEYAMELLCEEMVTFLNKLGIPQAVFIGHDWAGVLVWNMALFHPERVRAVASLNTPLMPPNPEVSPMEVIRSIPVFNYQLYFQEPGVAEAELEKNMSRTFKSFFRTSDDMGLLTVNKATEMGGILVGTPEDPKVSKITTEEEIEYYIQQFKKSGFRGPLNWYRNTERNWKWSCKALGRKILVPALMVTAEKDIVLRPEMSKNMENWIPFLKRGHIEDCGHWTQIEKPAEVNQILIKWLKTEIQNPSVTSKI
Assay: Inhibition of rat recombinant soluble epoxide hydrolase after 1 hr by fluorescence assay
pIC50: −log10 of the molar value.
true means recorded pIC50 is 8 or above; false means it is below 8.

These solved cases illustrate the format of a correct answer.
O=C(N[C@H]1C[C@@H]1c1ccccc1)N1CCC(Oc2ccccn2)CC1 (racemic): false
O=C(O)c1cccc(OC2CCN(C(=O)N[C@H]3C[C@@H]3c3ccccc3)CC2)c1 (racemic): false
O=C(N[C@H]1C[C@@H]1c1ccccc1)N1CCC(OC(c2ccccc2)c2ccccc2)CC1 (racemic): true
O=C(N[C@H]1C[C@@H]1c1ccccc1)N1CCC(Oc2ccccc2)CC1 (racemic): false

Prompt: Please indicate if the recorded pIC50 for O=C(N[C@H]1C[C@@H]1c1ccccc1)N1CCC(Oc2cnccn2)CC1 (racemic) meets or exceeds 8.
Response: false

Prompt: Please indicate if the recorded pIC50 for COc1ccc(OC2CCN(C(=O)N[C@H]3C[C@@H]3c3ccccc3)CC2)cc1 (racemic) meets or exceeds 8.
Response: true

Prompt: Please indicate if the recorded pIC50 for O=C(N[C@H]1C[C@@H]1c1ccccc1)N1CCC(Oc2ccccc2-c2ccccc2)CC1 (racemic) meets or exceeds 8.
Response: false

Prompt: Please indicate if the recorded pIC50 for O=C(O)c1ccc(OC2CCN(C(=O)N[C@H]3C[C@@H]3c3ccccc3)CC2)c(Cl)c1 (racemic) meets or exceeds 8.
Response: true

Prompt: Please indicate if the recorded pIC50 for O=C(O)Cc1ccc(OC2CCN(C(=O)N[C@H]3C[C@@H]3c3ccccc3)CC2)cc1 (relative stereo) meets or exceeds 8.
Response: false

Prompt: Please indicate if the recorded pIC50 for O=C(O)c1ccccc1OC1CCN(C(=O)N[C@H]2C[C@@H]2c2ccccc2)CC1 (racemic) meets or exceeds 8.
Response: false

====

Biological target: Cytochrome P450 2C8 (Homo sapiens, UniProt P10632)
Sequence (P10632 whole entry): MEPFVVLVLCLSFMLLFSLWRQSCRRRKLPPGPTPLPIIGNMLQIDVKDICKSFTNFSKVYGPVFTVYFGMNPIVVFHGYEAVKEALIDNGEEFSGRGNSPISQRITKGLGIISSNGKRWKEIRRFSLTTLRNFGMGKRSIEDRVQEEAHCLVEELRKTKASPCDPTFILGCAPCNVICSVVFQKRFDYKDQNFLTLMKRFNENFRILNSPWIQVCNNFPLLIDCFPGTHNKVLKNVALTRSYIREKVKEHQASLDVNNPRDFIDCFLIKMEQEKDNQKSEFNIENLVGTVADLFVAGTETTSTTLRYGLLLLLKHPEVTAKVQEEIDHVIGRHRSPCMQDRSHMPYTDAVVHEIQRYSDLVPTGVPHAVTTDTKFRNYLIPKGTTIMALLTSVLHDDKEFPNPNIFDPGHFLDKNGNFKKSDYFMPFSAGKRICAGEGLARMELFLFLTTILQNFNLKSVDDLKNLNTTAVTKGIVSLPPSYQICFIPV
pIC50: −log10 of the molar value.
RESULT TYPE: pIC50

Prompt: What measured pIC50 goes with O=C(O)Cc1ccc(OC2CCN(C(=O)N[C@H]3C[C@@H]3c3ccccc3)CC2)c(Cl)c1 (racemic) ?
Response: < 4.30

====

Items are presented alongside their recorded solubility at 1.5 h.
Test: Aqueous solubility of the compound at pH 7.4 after 90 mins
Assay type: physicochemical

These solved cases illustrate the format of a correct answer.
O=C(O)Cc1ccc(OC2CCN(C(=O)N[C@H]3C[C@@H]3c3ccccc3)CC2)cc1 (relative stereo): > 150 µg/mL
CC(C)c1noc(C2CCN(C(=O)N[C@H]3C[C@@H]3c3ccccc3)CC2)n1 (relative stereo): 41 µg/mL
O=C(O)c1ccc(OC2CCN(C(=O)N[C@H]3C[C@@H]3c3ccccc3)CC2)cc1 (racemic): > 150 µg/mL

Prompt: What measured solubility at 1.5 h goes with O=C(O)c1cccc(OC2CCN(C(=O)N[C@H]3C[C@@H]3c3ccccc3)CC2)c1 (racemic) ?
Response: > 150 µg/mL

Prompt: What measured solubility at 1.5 h goes with Cc1ccccc1OC1CCN(C(=O)N[C@H]2C[C@@H]2c2ccccc2)CC1 (racemic) ?
Response: < 0.2 µg/mL

Prompt: What measured solubility at 1.5 h goes with O=C(N[C@H]1C[C@@H]1c1ccccc1)N1CCC(Oc2ccc(-c3nnn[nH]3)cc2)CC1 (racemic) ?
Response: > 150 µg/mL

Prompt: What measured solubility at 1.5 h goes with O=C(O)Cc1ccc(OC2CCN(C(=O)N[C@H]3C[C@@H]3c3ccccc3)CC2)c(Cl)c1 (racemic) ?
Response: > 150 µg/mL

Prompt: What measured solubility at 1.5 h goes with O=C(O)c1ccc(OC2CCN(C(=O)N[C@H]3C[C@@H]3c3ccccc3)CC2)c(Cl)c1 (racemic) ?
Response: > 150 µg/mL

====

Molecular target: Bifunctional epoxide hydrolase 2 (Rattus norvegicus, UniProt P80299)
Experiment: Inhibition of rat recombinant soluble epoxide hydrolase after 1 hr by fluorescence assay
Class membership depends on IC50 alone; the intervals are class A = under 7 nM, class B = from 7 nM up to 9 nM, class C = 9 nM and over

O=C(N[C@H]1C[C@@H]1c1ccccc1)N1CCC(Oc2ccc(-c3ccccc3)cc2)CC1 (racemic): class A
O=C(N[C@H]1C[C@@H]1c1ccccc1)N1CCC(Oc2cccc(C(F)(F)F)c2)CC1 (racemic): class C
O=C(N[C@H]1C[C@@H]1c1ccccc1)N1CCC(Oc2ccc(-c3nnn[nH]3)cc2)CC1 (racemic): class A
O=C(N[C@H]1C[C@@H]1c1ccccc1)N1CCC(Oc2cccc(Cl)c2)CC1 (racemic): class B
O=C(N[C@H]1C[C@@H]1c1ccccc1)N1CCC(Oc2ccncc2)CC1 (racemic): class C
CC(C)c1noc(C2CCN(C(=O)N[C@H]3C[C@@H]3c3ccccc3)CC2)n1 (relative stereo): class B
O=C(N[C@H]1C[C@@H]1c1ccccc1)N1CCC(Oc2ccc(Cl)cc2)CC1 (racemic): class C
Cc1cccc(OC2CCN(C(=O)N[C@H]3C[C@@H]3c3ccccc3)CC2)c1 (racemic): class A
COc1ccccc1OC1CCN(C(=O)N[C@H]2C[C@@H]2c2ccccc2)CC1 (racemic): class C

Prompt: Band of O=C(N[C@H]1C[C@@H]1c1ccccc1)N1CCC(Oc2cccc(-c3ccccc3)c2)CC1 (racemic) ?
Response: class A
